# System: HCT-15 colon
# experimentalProtocol: NCI-60 one-dose screen, 48 h
# measurementSetup: 10 µM unless noted
About 83,000 compounds went through this panel and 20% of them were active in at least one assay; those are over-represented in the sample as a whole. The source made the active and inactive calls. The calls were made as follows: active = growth percent below 10; inactive = the rest.
In this exercise, the only acceptable responses are YES (active), NO (inactive)

Which result was noted for this molecule in the test: COC(=O)c1c(C(=O)OC)c2ccc3c4ncccc4ccc3n2c1C(=O)c1ccc(C)cc1
NO

Which result was noted for this molecule in the test: COc1ccc(-c2ccc(-c3ccc(C(=N)N)nc3)s2)cc1
YES

Which result was noted for this molecule in the test: N#C/C(=C/C=C/c1ccccc1)S(=O)c1ccccc1 (stereo not drawn)
YES

Which result was noted for this molecule in the test: C[C@H]1c2ccccc2CN1CCCOc1cc2c(cc1OCC1CC1)C1(CCCC1)C(N)=N2
YES
